Listed below: Encapsulation Efficiency values for each entry.
Assay: Lipid nanoparticle characterization (size, PDI, zeta potential, encapsulation efficiency)
Type: physicochemical
Details: Fresh samples; LNP of named lipid:DSPC:Cholesterol:GM020=50:10:38.5:1.5 (DS-001 25:10:38.5:1.5); 250 μg mRNA
Reply numerically in %, unit not repeated.

Compound	Units Label	Encapsulation Efficiency
CCCCCCCCCC1(CCCCCC)OCC(CCCCN(CCCCO)CCCCC2COC(CCCCCC)(CCCCCCCCC)O2)O1 (stereo not drawn) [KT-001]	%	80.60
CCCCCCCCC(CCCCCC)C(=O)OCCCCCCN(CCCCO)CCCCCCOC(=O)C(CCCCCC)CCCCCCCC (stereo not drawn) [ALC-0315, reference compound]	%	83.16
CCCCCCCCC(CCCCCC)C(=O)OCCCN(CCCOC(=O)C(CCCCCC)CCCCCCCC)C(=S)NCCCN1CCN(C)CC1 (stereo not drawn) [TU-004]	%	72.53
CCCCCCCCC(CCCCCC)C(=O)OCCCN(CCCOC(=O)C(CCCCCC)CCCCCCCC)C(=S)NCCCNC(C)C (stereo not drawn) [TU-008]	%	97.75
CCCCCCCCC(CCCCCC)C(=O)OCCCN(CCCOC(=O)C(CCCCCC)CCCCCCCC)C(=S)NCCCN (stereo not drawn) [TU-005]	%	97.66

Query :: Entry CCCCCCCCC(CCCCCC)C(=O)OCCCN(CCCOC(=O)C(CCCCCC)CCCCCCCC)C(=S)NCCCN1CCOCC1 (stereo not drawn) [TU-002] has what Encapsulation Efficiency?
Result :: 80.64

Query :: Entry CCCCCCCCC(CCCCCC)C(=O)OCCCN(CCCOC(=O)C(CCCCCC)CCCCCCCC)C(=S)NCCCN(CCC)CCC (stereo not drawn) [TU-007] has what Encapsulation Efficiency?
Result :: 78.96

Query :: Entry CCCCCCCCC(CCCCCC)C(=O)OCCCCCCN(CCCCCCOC(=O)C(CCCCCC)CCCCCCCC)CCCCNC(=O)OCCSSCCOC(=O)NCCCCN(CCCCCCOC(=O)C(CCCCCC)CCCCCCCC)CCCCCCOC(=O)C(CCCCCC)CCCCCCCC (stereo not drawn) [DS-001] has what Encapsulation Efficiency?
Result :: 84.50

Query :: Entry CCCCCCCCC(CCCCCC)C(=O)OCCCN(CCCOC(=O)C(CCCCCC)CCCCCCCC)C(=S)NCCCN1CCCCC1C (stereo not drawn) [TU-003] has what Encapsulation Efficiency?
Result :: 90.47

Query :: Entry CCCCCCCCC(CCCCCC)C(=O)OCCCN(CCCOC(=O)C(CCCCCC)CCCCCCCC)C(=S)NCCCN(CCCC)CCCC (stereo not drawn) [TU-009] has what Encapsulation Efficiency?
Result :: 80.76

Query :: Entry CCCCCCCCC(CCCCCC)C(=O)OCCCCCCN(CCCCO)CCC(=O)OCCCCOC(=O)CCN(CCCCO)CCCCCCOC(=O)C(CCCCCC)CCCCCCCC (stereo not drawn) [BAE-001] has what Encapsulation Efficiency?
Result :: 83.32

Query :: Entry CCCCCCCCC(CCCCCC)C(=O)OCCCN(CCCOC(=O)C(CCCCCC)CCCCCCCC)C(=S)NCCCN(CC)CC (stereo not drawn) [TU-006] has what Encapsulation Efficiency?
Result :: 81.48

* * *

Listed below: Zeta Potential values for each entry.
Test: Lipid nanoparticle characterization (size, PDI, zeta potential, encapsulation efficiency)
Assay type: physicochemical
Details: Fresh samples; LNP of named lipid:DSPC:Cholesterol:GM020=50:10:38.5:1.5 (DS-001 25:10:38.5:1.5); 250 μg mRNA
Reply numerically in mV, unit not repeated.

Recorded results for 3 molecules are shown here.
>>> df
                                   molecule  value_measured
0  CCCCCCCCC(CCCCCC)C(=O)OCCCN(CCCOC(=O)C(CCCCCC)CCCCCCCC)C(=S)NCCCN1CCOCC1 (stereo not shown)           −2.55
1  CCCCCCCCC(CCCCCC)C(=O)OCCCN(CCCOC(=O)C(CCCCCC)CCCCCCCC)C(=S)NCCCN(CC)CC (stereo not shown)          −0.642
2  CCCCCCCCC(CCCCCC)C(=O)OCCCCCCN(CCCCO)CCC(=O)OCCCCOC(=O)CCN(CCCCO)CCCCCCOC(=O)C(CCCCCC)CCCCCCCC (stereo not shown)           −0.28

# evaluate next
Query :: Entry CCCCCCCCC(CCCCCC)C(=O)OCCCN(CCCOC(=O)C(CCCCCC)CCCCCCCC)C(=S)NCCCN1CCCCC1C (stereo not shown) has what Zeta Potential?
Result :: −0.56

* * *

Experiment: Lipid nanoparticle characterization (size, PDI, zeta potential, encapsulation efficiency)
Format: physicochemical
Details: Fresh samples; LNP of named lipid:DSPC:Cholesterol:GM020=50:10:38.5:1.5 (DS-001 25:10:38.5:1.5); 250 μg mRNA
Cut-off 0.2 on PDI: below means fulfilled, at or above means not fulfilled.

>>> print(df.to_string())
                                   molecule          class
0  CCCCCCCCC(CCCCCC)C(=O)OCCCCCCN(CCCCO)CCCCCCOC(=O)C(CCCCCC)CCCCCCCC (stereo not shown) [ALC-0315, reference compound]  not fulfilled
1  CCCCCCCCC(CCCCCC)C(=O)OCCCN(CCCOC(=O)C(CCCCCC)CCCCCCCC)C(=S)NCCCN(CCC)CCC (stereo not shown)      fulfilled
2  CCCCCCCCC(CCCCCC)C(=O)OCCCN(CCCOC(=O)C(CCCCCC)CCCCCCCC)C(=S)NCCCNC(C)C (stereo not shown)  not fulfilled
3  CCCCCCCCC(CCCCCC)C(=O)OCCCN(CCCOC(=O)C(CCCCCC)CCCCCCCC)C(=S)NCCCN1CCOCC1 (stereo not shown)      fulfilled

Query :: Below 0.2 on PDI? Entry CCCCCCCCC(CCCCCC)C(=O)OCCCN(CCCOC(=O)C(CCCCCC)CCCCCCCC)C(=S)NCCCN1CCN(C)CC1 (stereo not shown)
Result :: not fulfilled

Query :: Below 0.2 on PDI? Entry CCCCCCCCC(CCCCCC)C(=O)OCCCN(CCCOC(=O)C(CCCCCC)CCCCCCCC)C(=S)NCCCN(CCCC)CCCC (stereo not shown)
Result :: fulfilled

Query :: Below 0.2 on PDI? Entry CCCCCCCCC(CCCCCC)C(=O)OCCCCCCN(CCCCO)CCC(=O)OCCCCOC(=O)CCN(CCCCO)CCCCCCOC(=O)C(CCCCCC)CCCCCCCC (stereo not shown)
Result :: fulfilled

* * *

Experiment: Lipid nanoparticle characterization (size, PDI, zeta potential, encapsulation efficiency)
Type: physicochemical
Settings: Fresh samples; LNP of named lipid:DSPC:Cholesterol:GM020=50:10:38.5:1.5 (DS-001 25:10:38.5:1.5); 250 μg mRNA
Description: […]
Listed below: PDI values for each entry.
Respond with the number and no other words.

Compound	Value Measured
CCCCCCCCCC1(CCCCCC)OCC(CCCCN(CCCCO)CCCCC2COC(CCCCCC)(CCCCCCCCC)O2)O1 (centres unmarked) [KT-001]	0.08
CCCCCCCCC(CCCCCC)C(=O)OCCCN(CCCOC(=O)C(CCCCCC)CCCCCCCC)C(=S)NCCCN1CCCCC1C (centres unmarked) [TU-003]	0.23
CCCCCCCCC(CCCCCC)C(=O)OCCCN(CCCOC(=O)C(CCCCCC)CCCCCCCC)C(=S)NCCCN(CC)CC (centres unmarked) [TU-006]	0.278
CCCCCCCCC(CCCCCC)C(=O)OCCCN(CCCOC(=O)C(CCCCCC)CCCCCCCC)C(=S)NCCCN (centres unmarked) [TU-005]	0.282

Query :: Entry CCCCCCCCC(CCCCCC)C(=O)OCCCCCCN(CCCCCCOC(=O)C(CCCCCC)CCCCCCCC)CCCCNC(=O)OCCSSCCOC(=O)NCCCCN(CCCCCCOC(=O)C(CCCCCC)CCCCCCCC)CCCCCCOC(=O)C(CCCCCC)CCCCCCCC (centres unmarked) [DS-001] has what PDI?
Result :: 0.12

* * *

Listed below: Z Avg. values for each entry.
Test: Lipid nanoparticle characterization (size, PDI, zeta potential, encapsulation efficiency)
Format: physicochemical
Conditions: Fresh samples; LNP of named lipid:DSPC:Cholesterol:GM020=50:10:38.5:1.5 (DS-001 25:10:38.5:1.5); 250 μg mRNA
Reply numerically in nm, unit not repeated.

Recorded results for 4 molecules are shown here.
Molecule	Units Label	Z Avg.
CCCCCCCCC(CCCCCC)C(=O)OCCCN(CCCOC(=O)C(CCCCCC)CCCCCCCC)C(=S)NCCCN (stereo not drawn)	nm	176.9
CCCCCCCCC(CCCCCC)C(=O)OCCCN(CCCOC(=O)C(CCCCCC)CCCCCCCC)C(=S)NCCCN(CCCC)CCCC (stereo not drawn)	nm	64.82
CCCCCCCCC(CCCCCC)C(=O)OCCCCCCN(CCCCO)CCCCCCOC(=O)C(CCCCCC)CCCCCCCC (stereo not drawn) [ALC-0315, reference compound]	nm	78.67
CCCCCCCCC(CCCCCC)C(=O)OCCCN(CCCOC(=O)C(CCCCCC)CCCCCCCC)C(=S)NCCCN1CCN(C)CC1 (stereo not drawn)	nm	79.77

Query :: Entry CCCCCCCCC(CCCCCC)C(=O)OCCCN(CCCOC(=O)C(CCCCCC)CCCCCCCC)C(=S)NCCCN(CC)CC (stereo not drawn) has what Z Avg.?
Result :: 68.84

Query :: Entry CCCCCCCCC(CCCCCC)C(=O)OCCCN(CCCOC(=O)C(CCCCCC)CCCCCCCC)C(=S)NCCCN(CCC)CCC (stereo not drawn) has what Z Avg.?
Result :: 63.30

Query :: Entry CCCCCCCCC(CCCCCC)C(=O)OCCCN(CCCOC(=O)C(CCCCCC)CCCCCCCC)C(=S)NCCCN1CCOCC1 (stereo not drawn) has what Z Avg.?
Result :: 76.99

Query :: Entry CCCCCCCCC(CCCCCC)C(=O)OCCCCCCN(CCCCCCOC(=O)C(CCCCCC)CCCCCCCC)CCCCNC(=O)OCCSSCCOC(=O)NCCCCN(CCCCCCOC(=O)C(CCCCCC)CCCCCCCC)CCCCCCOC(=O)C(CCCCCC)CCCCCCCC (stereo not drawn) has what Z Avg.?
Result :: 63.0

Query :: Entry CCCCCCCCC(CCCCCC)C(=O)OCCCCCCN(CCCCO)CCC(=O)OCCCCOC(=O)CCN(CCCCO)CCCCCCOC(=O)C(CCCCCC)CCCCCCCC (stereo not drawn) has what Z Avg.?
Result :: 111.7

Query :: Entry CCCCCCCCC(CCCCCC)C(=O)OCCCN(CCCOC(=O)C(CCCCCC)CCCCCCCC)C(=S)NCCCNC(C)C (stereo not drawn) has what Z Avg.?
Result :: 64.64

Query :: Entry CCCCCCCCC(CCCCCC)C(=O)OCCCN(CCCOC(=O)C(CCCCCC)CCCCCCCC)C(=S)NCCCN1CCCCC1C (stereo not drawn) has what Z Avg.?
Result :: 73.29

Query :: Entry CCCCCCCCCC1(CCCCCC)OCC(CCCCN(CCCCO)CCCCC2COC(CCCCCC)(CCCCCCCCC)O2)O1 (stereo not drawn) has what Z Avg.?
Result :: 84.7

Where these numbers come from: patent US20260007612A1
